Test system: Klebsiella pneumoniae
Measurement notes: Antibacterial activity against Klebsiella pneumoniae ATCC 700603 assessed as bacterial growth inhibition by CLSI protocol based assay
Assay type: functional

Smiles str: N#Cc1ccc2ccc(=O)n(CCN[C@H]3CC[C@H]4[C@H](C3)OC(=O)N4c3ccc4c(n3)NC(=O)CO4)c2c1
Assay target: Klebsiella pneumoniae
Relation symbol: =
MIC / µg/mL: 2

Smiles str: COc1ccc2ccc(=O)n(CCN[C@H]3CC[C@H]4[C@H](C3)OC(=O)N4c3ccc4c(n3)NC(=O)CO4)c2n1
Assay target: Klebsiella pneumoniae
Relation symbol: =
MIC / µg/mL: 4

Smiles str: COc1ccc2ccc(=O)n(CCN[C@H]3CC[C@H]4[C@H](C3)OC(=O)N4c3ncc4c(n3)NC(=O)CO4)c2n1
Assay target: Klebsiella pneumoniae
Relation symbol: =
MIC / µg/mL: 8

Smiles str: O=c1ccc2ncc(=O)n3c2n1C[C@H]3CN1CCC(NCc2cc3c(cn2)OCCC3)CC1
Assay target: Klebsiella pneumoniae
Relation symbol: =
MIC / µg/mL: 16

Smiles str: COc1ccc2ccc(=O)n(CCN[C@H]3CC[C@H]4[C@H](C3)OC(=O)N4c3ccc4c(n3)NC(=O)CO4)c2c1
Assay target: Klebsiella pneumoniae
Relation symbol: =
MIC / µg/mL: 8

Smiles str: COc1cnc2ccc(=O)n(CCN[C@H]3CC[C@H]4[C@H](C3)OC(=O)N4c3ccc4c(n3)NC(=O)CO4)c2n1
Assay target: Klebsiella pneumoniae
Relation symbol: =
MIC / µg/mL: 2

Smiles str: COc1cnc2ccc(=O)n(CCN[C@H]3CC[C@H]4[C@H](C3)OC(=O)N4c3ccc4c(n3)NC(=O)CO4)c2c1
Assay target: Klebsiella pneumoniae
Relation symbol: =
MIC / µg/mL: 8

Smiles str: COc1ccc2ccc(=O)n(CCN[C@H]3CC[C@H]4[C@H](C3)OC(=O)N4c3ccc4c(n3)NC(=O)C(C)(C)O4)c2n1
Assay target: Klebsiella pneumoniae
Relation symbol: =
MIC / µg/mL: 64

Smiles str: N#Cc1ccc2c(ccc(=O)n2CCN[C@H]2CC[C@H]3[C@H](C2)OC(=O)N3c2ccc3c(n2)NC(=O)CO3)c1
Assay target: Klebsiella pneumoniae
Relation symbol: >
MIC / µg/mL: 64

Smiles str: COc1ccc2ccc(=O)n(CCN[C@@H]3CC[C@@H]4[C@@H](C3)OC(=O)N4c3ccc4c(n3)NC(=O)CO4)c2n1
Assay target: Klebsiella pneumoniae
Relation symbol: =
MIC / µg/mL: 1

Smiles str: COc1cnc2ccc(=O)n(CCCN[C@H]3CC[C@H]4[C@H](C3)OC(=O)N4c3ccc4c(n3)NC(=O)CO4)c2c1
Assay target: Klebsiella pneumoniae
Relation symbol: =
MIC / µg/mL: 8

Smiles str: O=C1COc2ccc(N3C(=O)O[C@H]4C[C@@H](NCCCn5c(=O)cnc6ccc(F)cc65)CC[C@@H]43)nc2N1
Assay target: Klebsiella pneumoniae
Relation symbol: =
MIC / µg/mL: 2

Smiles str: COc1ccc2ccc(=O)n(CCN[C@H]3CC[C@H]4[C@@H](C3)OC(=O)N4c3ccc4c(n3)NC(=O)CO4)c2n1
Assay target: Klebsiella pneumoniae
Relation symbol: =
MIC / µg/mL: 8

Smiles str: N#Cc1cnc2ccc(=O)n(CCN[C@H]3CC[C@H]4[C@H](C3)OC(=O)N4c3ccc4c(n3)NC(=O)CS4)c2c1
Assay target: Klebsiella pneumoniae
Relation symbol: =
MIC / µg/mL: 16

----------
Tested on: Pseudomonas aeruginosa
Measurement notes: Antibacterial activity against Pseudomonas aeruginosa ATCC 27853 assessed as bacterial growth inhibition by CLSI protocol based assay
Assay type: functional
Observation type: MIC (µg/mL)

Smiles str: COc1ccc2ncc(=O)n(CCN[C@H]3CC[C@H]4[C@H](C3)OC(=O)N4c3ccc4c(n3)NC(=O)CO4)c2n1
Unit of measure: µg/mL
Test result: 4
//
Smiles str: O=C1COc2ccc(N3C(=O)O[C@H]4C[C@@H](NCCn5c(=O)cnc6ccc(F)cc65)CC[C@@H]43)nc2N1
Unit of measure: µg/mL
Test result: 4
//
Smiles str: COc1ccc2ccc(=O)n(CCN[C@H]3CC[C@H]4[C@H](C3)OC(=O)N4c3ccc4c(n3)NC(=O)CO4)c2n1
Unit of measure: µg/mL
Test result: 1
//
Smiles str: N#Cc1ccc2ccc(=O)n(CCCN[C@H]3CC[C@H]4[C@H](C3)OC(=O)N4c3ccc4c(n3)NC(=O)CO4)c2c1
Unit of measure: µg/mL
Test result: 1

----------
For reference, IC50 measured on DNA topoisomerase 2-alpha (Homo sapiens):
Observation type: IC50

Smiles str: N#Cc1ccc2ccc(=O)n(CCN[C@H]3CC[C@H]4[C@H](C3)OC(=O)N4c3ccc4c(n3)NC(=O)CO4)c2c1
Test result: 72.8 µM
--
Smiles str: N#Cc1cnc2ccc(=O)n(CCCN[C@H]3CC[C@H]4[C@H](C3)OC(=O)N4c3ccc4c(n3)NC(=O)CO4)c2c1
Test result: > 100 µM
--
Smiles str: COc1ccc2ccc(=O)n(CCN[C@H]3CC[C@H]4[C@H](C3)OC(=O)N4c3ccc4c(n3)NC(=O)CS4)c2n1
Test result: > 100 µM
--
Smiles str: COc1cnc2ccc(=O)n(CCCN[C@H]3CC[C@H]4[C@H](C3)OC(=O)N4c3ccc4c(n3)NC(=O)CO4)c2c1
Test result: > 100 µM
--
Smiles str: COc1ccc2ccc(=O)n(CCN[C@H]3CC[C@H]4[C@H](C3)OC(=O)N4c3ccc4c(n3)NC(=O)CO4)c2n1
Test result: 14.4 µM
--
Smiles str: N#Cc1cnc2ccc(=O)n(CCN[C@H]3CC[C@H]4[C@H](C3)OC(=O)N4c3ccc4c(n3)NC(=O)CO4)c2c1
Test result: > 100 µM
--
Smiles str: COc1cnc2ccc(=O)n(CCN[C@H]3CC[C@H]4[C@H](C3)OC(=O)N4c3ccc4c(n3)NC(=O)CO4)c2c1
Test result: > 100 µM
--
Smiles str: O=c1ccc2ncc(=O)n3c2n1C[C@H]3CN1CCC(NCc2cc3c(cn2)OCCC3)CC1
Test result: 55.2 µM

----------
Measurement notes: Kinetic solubility of compound
Type: physicochemical
Condition set: read-out: Kinetic_solubility

Smiles str: N#Cc1ccc2ccc(=O)n(CCN[C@H]3CC[C@H]4[C@H](C3)OC(=O)N4c3ccc4c(n3)NC(=O)CO4)c2c1
Relation symbol: =
solubility kinetic / µM: 62
--
Smiles str: COc1cnc2ccc(=O)n(CCN[C@H]3CC[C@H]4[C@H](C3)OC(=O)N4c3ccc4c(n3)NC(=O)CO4)c2c1
Relation symbol: =
solubility kinetic / µM: 94
--
Smiles str: COc1ccc2ccc(=O)n(CCN[C@H]3CC[C@H]4[C@H](C3)OC(=O)N4c3ccc4c(n3)NC(=O)CO4)c2n1
Relation symbol: =
solubility kinetic / µM: 76
--
Smiles str: COc1cnc2ccc(=O)n(CCCN[C@H]3CC[C@H]4[C@H](C3)OC(=O)N4c3ccc4c(n3)NC(=O)CO4)c2c1
Relation symbol: >
solubility kinetic / µM: 100
--
Smiles str: COc1ccc2ccc(=O)n(CCN[C@H]3CC[C@H]4[C@H](C3)OC(=O)N4c3ccc4c(n3)NC(=O)CS4)c2n1
Relation symbol: =
solubility kinetic / µM: 54
--
Smiles str: N#Cc1cnc2ccc(=O)n(CCCN[C@H]3CC[C@H]4[C@H](C3)OC(=O)N4c3ccc4c(n3)NC(=O)CO4)c2c1
Relation symbol: =
solubility kinetic / µM: 86

----------
The following compounds are listed with their measured logD values.
Measurement notes: Lipophilicity, logD of the compound by shake flask assay
Type: physicochemical
Condition set: octanol/water
Observation type: logD

Smiles str: N#Cc1ccc2ccc(=O)n(CCN[C@H]3CC[C@H]4[C@H](C3)OC(=O)N4c3ccc4c(n3)NC(=O)CO4)c2c1
Observation type: logD
Test result: 1.51
//
Smiles str: COc1ccc2ccc(=O)n(CCN[C@H]3CC[C@H]4[C@H](C3)OC(=O)N4c3ncc4c(n3)NC(=O)CO4)c2n1
Observation type: logD
Test result: 0.9
//
Smiles str: COc1ccc2ccc(=O)n(CCN[C@H]3CC[C@H]4[C@H](C3)OC(=O)N4c3ccc4c(n3)NC(=O)CO4)c2c1
Observation type: logD
Test result: 2.25
//
Smiles str: COc1cnc2ccc(=O)n(CCN[C@H]3CC[C@H]4[C@H](C3)OC(=O)N4c3ccc4c(n3)NC(=O)CO4)c2c1
Observation type: logD
Test result: 1.36

----------
The following molecules are listed with their measured microsomal CLint values.
Measurement notes: Intrinsic clearance in human liver microsomes in presence of NADPH and measured upto 45 mins
Assay type: ADME, Microsome
Condition set: read-out: CLH
Observation type: microsomal CLint (µL/min/mg)

Smiles str: COc1ccc2ccc(=O)n(CCN[C@H]3CC[C@H]4[C@H](C3)OC(=O)N4c3ccc4c(n3)NC(=O)CO4)c2n1
Unit of measure: µL/min/mg
Relation symbol: =
Test result: 110
//
Smiles str: COc1cnc2ccc(=O)n(CCN[C@H]3CC[C@H]4[C@H](C3)OC(=O)N4c3ccc4c(n3)NC(=O)CO4)c2c1
Unit of measure: µL/min/mg
Relation symbol: =
Test result: 35
//
Smiles str: N#Cc1cnc2ccc(=O)n(CCN[C@H]3CC[C@H]4[C@H](C3)OC(=O)N4c3ccc4c(n3)NC(=O)CO4)c2c1
Unit of measure: µL/min/mg
Relation symbol: <
Test result: 3
//
Smiles str: N#Cc1cnc2ccc(=O)n(CCCN[C@H]3CC[C@H]4[C@H](C3)OC(=O)N4c3ccc4c(n3)NC(=O)CO4)c2c1
Unit of measure: µL/min/mg
Relation symbol: <
Test result: 3
//
Smiles str: COc1cnc2ccc(=O)n(CCCN[C@H]3CC[C@H]4[C@H](C3)OC(=O)N4c3ccc4c(n3)NC(=O)CO4)c2c1
Unit of measure: µL/min/mg
Relation symbol: <
Test result: 3
//
Smiles str: COc1ccc2ccc(=O)n(CCN[C@H]3CC[C@H]4[C@H](C3)OC(=O)N4c3ccc4c(n3)NC(=O)CS4)c2n1
Unit of measure: µL/min/mg
Relation symbol: =
Test result: 267
//
Smiles str: N#Cc1ccc2ccc(=O)n(CCN[C@H]3CC[C@H]4[C@H](C3)OC(=O)N4c3ccc4c(n3)NC(=O)CO4)c2c1
Unit of measure: µL/min/mg
Relation symbol: =
Test result: 59
